Target: KRAS Q61H (Homo sapiens, UniProt P01116+P62937, Q61H)
Sequence (P01116 1-169 isoform P01116-2 Q61H limits assumed): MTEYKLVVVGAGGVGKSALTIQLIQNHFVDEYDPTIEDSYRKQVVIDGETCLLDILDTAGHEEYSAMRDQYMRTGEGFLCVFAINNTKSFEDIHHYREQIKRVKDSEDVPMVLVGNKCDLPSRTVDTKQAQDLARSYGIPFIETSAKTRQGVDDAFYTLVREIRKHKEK
Sequence (P62937 whole entry): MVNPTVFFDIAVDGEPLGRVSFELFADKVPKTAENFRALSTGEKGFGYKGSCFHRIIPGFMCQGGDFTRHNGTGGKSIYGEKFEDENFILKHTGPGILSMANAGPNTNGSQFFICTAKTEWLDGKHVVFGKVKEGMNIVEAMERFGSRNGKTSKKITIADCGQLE
Test: Disruption of BRAF RBD interaction with Ras (FRET / MOA assay, with Cyclophilin A)
Assay type: biochemical
Details: KRAS Q61H; read-out: KRAS Q61H FRET data IC50
pIC50: −log10 of the molar value.
READOUT: pIC50

CCn1c(-c2cccnc2[C@H](C)OC)c2c3cc(ccc31)-c1cc(O)cc(c1)C[C@H](NC(=O)C13CCCC1C3(F)F)C(=O)N1CCC[C@H](N1)C(=O)OCC(C)(C)C2 (stereo partly shown)
6.00 to 7.00
CC#CC(=O)N1CC[C@H](C(=O)N(C)[C@H](C(=O)N[C@H]2Cc3nc(cs3)-c3ccc4c(c3)c(c(-c3cccnc3[C@H](C)OC)n4CC)CC(C)(C)COC(=O)[C@@H]3CCCN(N3)C2=O)C(C)C)C1
5.00 to 6.00
C=CC(=O)N1CC[C@H](C(=O)N(C)[C@H](C(=O)N[C@H]2C[C@H]3CN(CCO3)c3ccc4c(c3)c(c(-c3cccnc3[C@H](C)OC)n4CC)CC(C)(C)COC(=O)[C@@H]3CCCN(N3)C2=O)C(C)C)C1 (racemic)
< 5.00

For reference, reported pIC50 for CCn1c(-c2cccnc2[C@H](C)OC)c2c3cc(ccc31)-c1csc(n1)C[C@H](NC(=O)[C@H](C(C)C)N(C)C(=O)N1CCCC1)C(=O)N1CCC[C@H](N1)C(=O)OCC(C)(C)C2 (atropisomer, axis not shown) stands at 7.00 to 8.00

----------
Molecular target: KRAS G13D (Homo sapiens, UniProt P01116+P62937, G13D)
Sequence (P01116 1-169 isoform P01116-2 G13D limits assumed): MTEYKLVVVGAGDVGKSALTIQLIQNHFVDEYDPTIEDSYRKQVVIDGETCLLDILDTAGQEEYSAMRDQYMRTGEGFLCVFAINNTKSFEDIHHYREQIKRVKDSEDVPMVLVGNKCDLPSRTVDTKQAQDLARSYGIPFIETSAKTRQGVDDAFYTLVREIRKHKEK
Sequence (P62937 whole entry): as the sequence (P62937 whole entry) above
Experiment: Ras-Raf disruption / FRET / MOA assay (BRAF RBD)
Type: biochemical
Details: Ras-Raf disruption, with Cyclophilin A; read-out: KRAS G13D FRET data IC50
READOUT: IC50

Record excerpt, results attached:
CCn1c(-c2cccnc2[C@H](C)OC)c2c3cc(ccc31)-c1cc(O)cc(c1)C[C@H](NC(=O)[C@H](C(C)C)N(C)C(=O)c1ncc(NC(=O)[C@H]3CN3)n1C)C(=O)N1CCC[C@H](N1)C(=O)OCC(C)(C)C2
100 to 1000 nM
CCn1c(-c2cccnc2[C@H](C)OC)c2c3cc(ccc31)-c1cc(O)cc(c1)C[C@H](NC(=O)[C@H](C(C)C)N(C)C(=O)[C@@H]1CN1)C(=O)N1CCC[C@H](N1)C(=O)OCC(C)(C)C2
10 to 100 nM

For reference, reported IC50 for CCn1c(-c2cccnc2[C@H](C)OC)c2c3cc(ccc31)-c1cc(O)cc(c1)C[C@H](NC(=O)[C@H](C(C)C)N(C)C(=O)[C@@H]1CCCN(C(=O)[C@@H]3CN3)C1)C(=O)N1CCC[C@H](N1)C(=O)OCC(C)(C)C2 stands at 100 to 1000 nM

For reference, reported IC50 for CCn1c(-c2cccnc2[C@H](C)OC)c2c3cc(ccc31)-c1cc(O)cc(c1)C[C@H](NC(=O)[C@H](C(C)C)N(C)C(=O)[C@H]1CCN(C(=O)C3(C)CO3)C1)C(=O)N1CCC[C@H](N1)C(=O)OCC(C)(C)C2 (some centres unmarked) stands at 10 to 100 nM

For reference, reported IC50 for CCn1c(-c2cccnc2[C@H](C)OC)c2c3cc(ccc31)-c1cc(O)cc(c1)C[C@H](NC(=O)[C@H](C(C)C)N(C)C(=O)[C@H]1CCN(C(=O)C3OC3c3ccccc3)C1)C(=O)N1CCC[C@H](N1)C(=O)OCC(C)(C)C2 (some centres unmarked) stands at 100 to 1000 nM

For reference, reported IC50 for CCn1c(-c2cccnc2[C@H](C)OC)c2c3cc(ccc31)-c1cc(O)cc(c1)C[C@H](NC(=O)[C@H](C(C)C)N1CC[C@@]3(CCN(C[C@@H]4CN4)C3)C1=O)C(=O)N1CCC[C@H](N1)C(=O)OCC(C)(C)C2 stands at 10 to 100 nM

For reference, reported IC50 for CCn1c(-c2cccnc2[C@H](C)OC)c2c3cc(ccc31)-c1cc(O)cc(c1)C[C@H](NC(=O)[C@H](C(C)C)N(C)C(=O)C1CC3(C1)CN(C(=O)[C@@H]1CN1)C3)C(=O)N1CCC[C@H](N1)C(=O)OCC(C)(C)C2 stands at 100 to 1000 nM

For reference, reported IC50 for CCn1c(-c2cccnc2[C@H](C)OC)c2c3cc(ccc31)-c1cc(O)cc(c1)C[C@H](NC(=O)[C@H](C(C)C)N(C)C(=O)[C@H]1C[C@@H]3N[C@@H]3C1)C(=O)N1CCC[C@H](N1)C(=O)OCC(C)(C)C2 (atropisomer, axis not shown) stands at 10 to 100 nM
